# experimental protocol: Intrinsic clearance in human liver microsomes at 1 uM measured for 60 mins by LC-MS analysis
# Assay type: ADME, Microsome
# condition set: read-out: CLH
quantity: CLint scaled at 1 µM (mL/min/kg)
Report only the number, with the unit mL/min/kg understood.

>>> df
                                     smiles              quantity  experimental_value
0  C=CC(=O)Nc1cccc(Nc2nc(Nc3ccc(N4CCN(C)CC4)cc3)nc3ccc(F)cc23)c1  CLint scaled at 1 µM                12.8

Could you now look at the following compound, please?
Query block: // Input: C=CC(=O)Nc1cc(Nc2nccc(-c3cn(C)c4ccccc34)n2)c(OC)cc1N(C)CCN(C)C . Output its CLint scaled at 1 µM only.
Result block: 21.4

###

# experimental protocol: Cytotoxicity against human A549 cells harboring wild type EGFR assessed as reduction in cell viability measured after 72 hrs by MTT assay
# Assay type: toxicity, cell-based
quantity: IC50 at 72 h (nM)
Write it as a number; the unit nM goes unstated.

In [3]: df
Out[3]:
                                     smiles      quantity  unit  experimental_value
0  C=CC(=O)Nc1cccc(Nc2nc(Nc3ccc(N4CCN(C)CC4)c(F)c3)nc3ccc(Cl)cc23)c1  IC50 at 72 h    nM                1500
1  C=CC(=O)Nc1cccc(Nc2nc(Nc3ccc(N4CCN(C)CC4)cc3)nc3ccc(C)cc23)c1  IC50 at 72 h    nM                2310

Now consider the entry below.
Query block: Give the value of IC50 at 72 h reported for the following: C=CC(=O)Nc1cccc(Nc2nc(Nc3ccc(N4CCN(CC)CC4)cc3)nc3ccc(Cl)cc23)c1
Result block: 672

###

# experimental protocol: AUC (0 to t) in Sprague-Dawley rat at 1 mg/kg, iv by LC-MS analysis
# Format: ADME, organism-based
# Parameters: dose 1 mg/kg, route iv
# condition set: in vivo
quantity: AUC(0-t) (µg·h/mL)
Expressed in µg·h/mL, but write only the number.

Query block: Kindly indicate its recorded AUC(0-t). Item: C=CC(=O)Nc1cccc(Nc2nc(Nc3ccc(N4CCN(C)CC4)cc3)nc3ccc(F)cc23)c1
Result block: 1.04

###

# experimental protocol: Clearance in Sprague-Dawley rat at 1 mg/kg, iv by LC-MS analysis
# Type: ADME, organism-based
# condition set: in vivo
quantity: clearance (mL/min/kg)
The answer is to be given in mL/min/kg; state only the numeric part.

Query block: Given C=CC(=O)Nc1cccc(Nc2nc(Nc3ccc(N4CCN(C)CC4)cc3)nc3ccc(F)cc23)c1 , respond with its clearance.
Result block: 16.1

###

# experimental protocol: Cytotoxicity against human A-431 cells harboring wild type EGFR assessed as reduction in cell viability measured after 72 hrs by MTT assay
# Format: toxicity, cell-based
quantity: IC50 at 72 h (µM)
Give just the number in µM; leave the unit off.

Observe how each entry below is paired with its result.
>>> df
                                     smiles      quantity  unit  experimental_value
0  C=CC(=O)Nc1cccc(Nc2nc(Nc3ccc(N(C)CCN(C)C)cc3)nc3ccc(Cl)cc23)c1  IC50 at 72 h    µM                2.89
1  C=CC(=O)Nc1cccc(Nc2nc(Nc3ccc(N4CCN(C)CC4)cc3)nc3ccc(OC)cc23)c1  IC50 at 72 h    µM                4.82
2  C=CC(=O)Nc1cccc(Nc2nc(Nc3ccc(N4CCC(N5CCN(C)CC5)CC4)cc3OC)nc3ccc(Cl)cc23)c1  IC50 at 72 h    µM                 6.6
3  C=CC(=O)Nc1cccc(Nc2nc(Nc3ccc(N4CCN(CC)CC4)cc3)nc3ccc(Cl)cc23)c1  IC50 at 72 h    µM               0.735
4  CN1CCN(c2ccc(Nc3nc(Nc4cccc(NC(=O)/C=C/c5ccccc5)c4)c4cc(Cl)ccc4n3)cc2)CC1  IC50 at 72 h    µM                3.22

Query block: Please supply the value of reported IC50 at 72 h for the item C=CC(=O)Nc1cccc(Nc2nc(Nc3ccc(N4CCN(C)CC4)cc3)nc3ccc(Br)cc23)c1
Result block: 5.42

Query block: Read the entry C=CC(=O)Nc1cccc(Nc2nc(Nc3ccc(N4CCC(N5CCN(C)CC5)CC4)cc3)nc3ccc(Cl)cc23)c1 and write its reported IC50 at 72 h.
Result block: 1.62

Query block: Identify measured IC50 at 72 h associated with C=CC(=O)Nc1cccc(Nc2nc(Nc3ccc(N4CCN(C)CC4)cc3)nc3cccc(F)c23)c1
Result block: 1.84

Query block: Look up and state reported IC50 at 72 h for C=CC(=O)Nc1cccc(Nc2nc(Nc3ccc(N4CCN(C)CC4)c(F)c3)nc3ccc(F)cc23)c1
Result block: 1.28

Query block: Annotate the molecule C=CC(=O)Nc1cccc(Nc2nc(Nc3ccc(N4CCC(N5CCN(C)CC5)CC4)cc3)nc3ccc(F)cc23)c1 with its measured IC50 at 72 h.
Result block: 1.69

Query block: Fill in IC50 at 72 h for record C=CC(=O)Nc1cccc(Nc2nc(Nc3ccc(N4CCC(N5CCOCC5)CC4)cc3)nc3ccc(F)cc23)c1
Result block: 7.59
